# system: T1, MBP-scNS3 (Hepatitis C virus genotype 1b, UniProt P26663)
# T1 construct: made in house
# assay_explanation: ONPG hydrolysis (β-galactosidase) assay in genetic screening bacteria as indicator of NS3 activity
# Format: cell-based, Hepatitis C virus (HCV) genotype Ib
# conditions_used: E. coli TG-I carrying pMGT14 and pMALc-NN-scFv; taken from FIG. 3A
recorded_endpoint: β-gal: β-galactosidase units

molecule	recorded_endpoint	measured
scFv 171: NS3-inhibiting single-chain antibody, SEQ ID NO:6; MBP fusion SEQ ID NO:20 (protein, scFv inhibitor) scFv: EVQLQQSGAELVRSGASVKLSCTASGFNIKDYYMHWVKQRPEQGLEWIGWIDPENGDTEYAPKFQGKATMTADTSSNTAYLQLSSLTSEDTAVYYCNAWGGSSDYYAMDYWGQGTSVTVSSGGGGSGGGGSGGGGSDVVMTQTPLSLPVSLGDQASISCRSSQSLVHSNGNTYLHWYLQKPGQSPKLLIYKVSNRFSGVPDRFSGSGSGTDFTLKISRVEAEDLGVYYCFQGSHVPWTFGGGTKLEIKR	β-gal: β-galactosidase units	67 β-galactosidase units
scFv 1: NS3-inhibiting single-chain antibody, SEQ ID NO:1; MBP fusion SEQ ID NO:15 (protein, scFv inhibitor) scFv: EVQLQQSGPELVKPGASVKMSCKASGYTFTDYYIKWVKQSHGKSLEWIGVINPGSGGTNYNEKFKGKATLTADKSSSTAYMQLSSLTSENSAVYFCARRAGTGYYFDYWGQGTTVTVSSGGGGSGGGGSGGGGSDVLMTQTPLSLPVSLGDQASISCRSSQSIVHSNGNTYLEWYLQKPGQSPKLLIYKVSNRFSGVPDRFSGSGSGTDFTLKISRVEAEDLGVYYCFQGSHVPLTFGAGTKLEIKR	β-gal: β-galactosidase units	44 β-galactosidase units

Next item in the queue.
Req: Which measured β-gal: β-galactosidase units value corresponds to scFv 162: NS3-inhibiting single-chain antibody, SEQ ID NO:5; MBP fusion SEQ ID NO:19 (protein, scFv inhibitor) scFv: EVQLQQSGAELVRSGASVKLSCTASGFNIKDYYMHWVKQRPEQGLEWIGWIDPANGNTKYDPKFQGKATITADTSSNTAYLQLSSLTSEDTAVYYCARWDWYFDVWGAGTTVTVSSGGGGSGGGGSGGGGSSVLMTQTPLSLPVSLGDQASISCRSSQSIVHSNGNTYLEWYLQKPGQSPKLLIYKVSNRFSGVPDRFSGSGSGTDFTLKISRVEAEDLGVYYCFQGSHVPWTFGGGTKLELKR ?
Resp: 84 β-galactosidase units
